# method summary: Oral bioavailability in rat
# Assay type: ADME, organism-based
# run parameters: in vivo
assay readout: bioavailability

// field: bioavailability; key: Cc1c(-c2cccc(S(=O)(=O)N(C)C)c2)c2cc(C(=O)O)ccc2n1C/C(F)=C/CN.Cl ; value = < 1%

###

# target: Amine oxidase [flavin-containing] B (Homo sapiens, UniProt P27338)
# Sequence (P27338 whole entry): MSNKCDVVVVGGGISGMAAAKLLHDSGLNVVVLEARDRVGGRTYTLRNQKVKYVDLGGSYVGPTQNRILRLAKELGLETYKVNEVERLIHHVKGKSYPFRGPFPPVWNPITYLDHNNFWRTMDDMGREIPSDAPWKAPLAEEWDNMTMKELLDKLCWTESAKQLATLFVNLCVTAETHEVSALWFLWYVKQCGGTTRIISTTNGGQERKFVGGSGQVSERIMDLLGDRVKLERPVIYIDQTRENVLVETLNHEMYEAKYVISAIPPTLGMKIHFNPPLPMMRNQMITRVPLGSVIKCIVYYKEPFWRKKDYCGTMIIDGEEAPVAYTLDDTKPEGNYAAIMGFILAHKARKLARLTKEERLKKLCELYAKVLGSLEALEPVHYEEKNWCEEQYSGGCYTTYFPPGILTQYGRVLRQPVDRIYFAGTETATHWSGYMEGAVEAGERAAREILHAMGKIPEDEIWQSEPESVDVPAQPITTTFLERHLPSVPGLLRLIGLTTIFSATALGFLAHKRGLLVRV
# method summary: Inhibition of recombinant human MAOB expressed in baculovirus infected in BTI cells using benzylamine as substrate preincubated with enzyme for 30 mins followed by substrate addition and measured every 2.5 mins for 30 mins by Amplex-Red oxidation assay
# run parameters: read-out: IC50
pIC50: −log10 of the molar value.
assay readout: pIC50

For Cc1c(-c2cccc(S(=O)(=O)N(C)C)c2)c2cc(C(=O)O)ccc2n1C/C(F)=C/CN.Cl the molecule record lists pIC50 as < 4.52

###

# target: Protein-lysine 6-oxidase (Homo sapiens, UniProt P28300)
# Sequence (P28300 whole entry): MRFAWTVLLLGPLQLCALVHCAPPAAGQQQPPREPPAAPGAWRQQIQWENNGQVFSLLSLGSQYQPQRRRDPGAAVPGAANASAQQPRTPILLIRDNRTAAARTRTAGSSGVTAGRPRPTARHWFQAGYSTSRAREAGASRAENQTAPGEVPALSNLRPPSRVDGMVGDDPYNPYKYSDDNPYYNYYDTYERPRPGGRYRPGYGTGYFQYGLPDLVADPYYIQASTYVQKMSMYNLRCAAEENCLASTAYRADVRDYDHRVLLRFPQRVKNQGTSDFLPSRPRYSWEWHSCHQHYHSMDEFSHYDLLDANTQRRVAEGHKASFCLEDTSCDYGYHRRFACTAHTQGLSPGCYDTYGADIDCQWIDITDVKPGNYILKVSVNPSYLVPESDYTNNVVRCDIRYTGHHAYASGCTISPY
# method summary: Inhibition of LOX in human IMR90 cells using putrescine as substrate preincubated with enzyme for 30 mins followed by substrate addition and measured every 2.5 mins for 30 mins by Amplex-Red oxidation assay
assay readout: IC50 (nM)
Numbers only, in nM.

Lab note: compound Cc1c(-c2cccc(S(=O)(=O)N(C)C)c2)c2cc(C(=O)O)ccc2n1C/C(F)=C/CN.Cl tested on Protein-lysine 6-oxidase (Homo sapiens, UniProt P28300); recorded IC50 was 1260

###

# method summary: Protein binding in rat plasma
# Type: ADME, cell-free
# run parameters: read-out: PPB (converted)
assay readout: fraction unbound
Numbers only.

Lab note: Cc1c(-c2cccc(S(=O)(=O)N(C)C)c2)c2cc(C(=O)O)ccc2n1C/C(F)=C/CN.Cl gave fraction unbound of 0.12

###

# target: Lysyl oxidase homolog 2 (Homo sapiens)
# Sequence (Q9Y4K0 whole entry): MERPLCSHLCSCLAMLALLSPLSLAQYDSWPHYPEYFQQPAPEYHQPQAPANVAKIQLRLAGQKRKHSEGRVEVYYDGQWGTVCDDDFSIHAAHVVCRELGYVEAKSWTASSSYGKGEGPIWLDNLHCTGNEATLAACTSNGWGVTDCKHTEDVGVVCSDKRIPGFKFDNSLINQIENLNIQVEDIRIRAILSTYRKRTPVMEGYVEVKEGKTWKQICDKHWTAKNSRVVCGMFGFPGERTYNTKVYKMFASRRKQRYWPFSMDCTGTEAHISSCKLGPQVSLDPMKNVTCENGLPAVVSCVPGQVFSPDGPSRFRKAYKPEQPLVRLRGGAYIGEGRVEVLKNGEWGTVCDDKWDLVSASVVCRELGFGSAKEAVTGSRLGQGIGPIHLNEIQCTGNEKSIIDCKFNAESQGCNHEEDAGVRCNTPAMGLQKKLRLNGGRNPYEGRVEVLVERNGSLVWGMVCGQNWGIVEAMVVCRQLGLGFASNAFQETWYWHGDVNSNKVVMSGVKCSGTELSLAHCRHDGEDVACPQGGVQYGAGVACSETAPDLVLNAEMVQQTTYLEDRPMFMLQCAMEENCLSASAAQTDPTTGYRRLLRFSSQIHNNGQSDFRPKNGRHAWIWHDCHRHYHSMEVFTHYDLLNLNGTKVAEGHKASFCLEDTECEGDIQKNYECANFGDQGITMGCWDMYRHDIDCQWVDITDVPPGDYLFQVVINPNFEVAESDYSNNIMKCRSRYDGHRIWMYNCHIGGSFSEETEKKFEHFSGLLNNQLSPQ
# method summary: Time-dependent inhibition of recombinant human C-terminal His-tagged […] (1-774 residues) expressed in mouse myeloma cells assessed as apparent inhibition constant using putrescine as substrate by kitz-wilson plot analysis
assay readout: Ki (µM)
Answers are plain numbers, in µM.

Kindly note the recorded Ki for Cc1c(-c2cccc(S(=O)(=O)N(C)C)c2)c2cc(C(=O)O)ccc2n1C/C(F)=C/CN.Cl , which is 0.083

The measurements presented in this section are drawn from ChEMBL document CHEMBL4321820.
